Cited source for all entries: patent US6962939B1

- test-system: UniProt P28335
- Sequence (P28335 33-458): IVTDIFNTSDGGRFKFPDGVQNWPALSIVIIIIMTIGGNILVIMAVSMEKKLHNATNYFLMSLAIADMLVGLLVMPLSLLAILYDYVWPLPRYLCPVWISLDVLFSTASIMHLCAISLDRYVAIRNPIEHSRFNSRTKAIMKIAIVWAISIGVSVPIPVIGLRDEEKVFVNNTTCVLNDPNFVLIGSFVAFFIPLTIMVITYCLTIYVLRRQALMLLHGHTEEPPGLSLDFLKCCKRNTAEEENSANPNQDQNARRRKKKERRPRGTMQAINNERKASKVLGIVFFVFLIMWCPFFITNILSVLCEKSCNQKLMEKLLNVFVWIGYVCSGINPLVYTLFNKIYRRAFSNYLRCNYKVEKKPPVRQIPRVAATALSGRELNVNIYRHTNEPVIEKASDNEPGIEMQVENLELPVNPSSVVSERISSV
- experiment-description: Functional activity, FLIPR calcium assay, CHO cells expressing h5-HT2C
- recorded-conditions: FLIPR, CHO cells, Fluo 3-AM
Counter-ions that a name gives are not always drawn.
measured-quantity: EC50 (nM)

{"compound": "C[C@@H](N)CN1CCc2ccc3ccccc3c21 [Compound 2]", "unit": "nM", "measured": 1720}
{"compound": "C[C@H](N)CN1CCc2ccc3c(c21)OCCO3 [Compound 6, fumarate]", "unit": "nM", "measured": 47}
{"compound": "C[C@H](N)CN1CCc2ccc3c(c21)CCCO3 [Compound 4, fumarate]", "unit": "nM", "measured": 47}
{"compound": "C[C@H](N)CN1CCc2ccc3c(c21)CCCC3 [Compound 7]", "unit": "nM", "measured": 440}
